Consider the following compounds and their measured TGI readings.
# Test system: SNB-19 CNS
# procedure-details: NCI tumour cell line growth inhibition, 48 h

# example entries with known answers
Q: Lab request: please report TGI under test system SNB-19 CNS for CC(=O)O[C@H]1CC[C@@]2(C)C(=CC[C@@H]3[C@@H]2CC[C@]2(C)c4c(C)nn(-c5ccccc5)c4C[C@@H]32)C1
Ans: > 100 µM

Q: Lab request: please report TGI under test system SNB-19 CNS for C=CCN(C(=O)OC(C)(C)C)[C@H](C)C(=O)N[C@@H](C)C(=O)OC
Ans: > 100 µM

Q: Lab request: please report TGI under test system SNB-19 CNS for CCOC(=O)C1=NN(c2ccc([N+](=O)[O-])cc2)[C@@]2(C)C[C@]3(c4ccccc4)N(c4ccc([N+](=O)[O-])cc4)N=C(C(=O)OCC)N3c3ccccc3N12
Ans: > 100 µM

Q: Lab request: please report TGI under test system SNB-19 CNS for N#Cc1c(-c2ccc(Cl)cc2)[nH]c(=O)n(C2OC(CO)C(O)C(O)C2O)c1=O (stereo not drawn)
Ans: > 100 µM

Q: Lab request: please report TGI under test system SNB-19 CNS for C=CC(=O)Nc1cc(C)ccc1Nc1nc(Nc2cc(OC)ncc2C)ncc1C(F)(F)F
Ans: > 100 µM

Q: Lab request: please report TGI under test system SNB-19 CNS for CC1(C)OC(=O)N(c2ccccc2)C12C=Cc1cccc([N+](=O)[O-])c1O2 (stereo not drawn)
Ans: > 100 µM

Q: Lab request: please report TGI under test system SNB-19 CNS for NCCCCCCCn1c2c(c3ccccc3c1=O)C(=O)c1ccccc1-2
Ans: 4.82 µM

Q: Lab request: please report TGI under test system SNB-19 CNS for CCOC(=O)C1c2[nH]c3ccccc3c2CCN1C(=O)c1ccc(OC)o1 (stereo not drawn)
Ans: > 10 µM

Q: Lab request: please report TGI under test system SNB-19 CNS for C/C1=C/C(=O)O[C@@H]2C[C@@H](CC[C@H](C)/C=C\C=C\CC1)O[C@@](O)([C@@H]1CSC(=O)N1)C2
Ans: > 7.89 µM

Q: Lab request: please report TGI under test system SNB-19 CNS for Cc1cccc(C(C)(C)C)c1NC(=O)CC1C(=O)Nc2ccccc2S1(=O)=O (stereo not drawn)
Ans: 29.2 µM

More entries:
Q: Lab request: please report TGI under test system SNB-19 CNS for C/C(=N\NS(=O)(=O)c1ccc(C)cc1)P(=O)(O)O
Ans: > 100 µM

Q: Lab request: please report TGI under test system SNB-19 CNS for CCOC(=O)c1cc2/c(=C\c3ccc(N(C)C)cc3)c3ccccc3n2[n+]1C
Ans: 15.6 µM

Q: Lab request: please report TGI under test system SNB-19 CNS for Cn1cnc([N+](=O)[O-])c1Sc1nccn1-c1cccc2ccccc12
Ans: > 100 µM

---

# System: HOP-62 NSCLC
# procedure-details: NCI tumour cell line growth inhibition, 48 h
Consider the following compounds and their measured TGI readings.

Q: Given CC(=O)OCC1OC(n2c(-c3ccccc3)c(C(C)=O)c(-c3cccc4ccccc34)c(C#N)c2=S)C(OC(C)=O)C(OC(C)=O)C1OC(C)=O (centres undefined) , state its recorded TGI.
Ans: > 100 µM

Q: Given C/C(CC(=O)Nc1ccc(C)c(C)c1)=N\NC(N)=O , state its recorded TGI.
Ans: > 100 µM

More entries:
Q: Given CC1SCc2nc3ccccc3n21 (centres undefined) , state its recorded TGI.
Ans: > 100 µM

Q: Given O=c1[nH]nc(-c2ccccc2)n1/N=C/c1cccs1 , state its recorded TGI.
Ans: > 100 µM

Q: Given Cn1c(=O)c2c(nc3n2CCCC(=O)N3CC(O)CCl)n(C)c1=O (centres undefined) , state its recorded TGI.
Ans: > 100 µM

---

# System: OVCAR-4 ovarian
# procedure-details: NCI tumour cell line growth inhibition, 48 h
measured-metric: TGI

# example entries with known answers
Q: Given Cc1nnc(-c2cccc(-c3ccc(C(=O)NCC4CC4)cc3)c2)o1 , state its recorded TGI.
Ans: > 25 µM

Q: Given CC(=O)Nc1c(C)cc2c(nc3n2CCC3OC(C)=O)c1[N+](=O)[O-] (stereo not given) , state its recorded TGI.
Ans: > 100 µM

Q: Given O=C1C2=C(CC3=C(C2)CS(=O)(=O)C3)C(=O)C2=C1CC1=C(C2)CS(=O)(=O)C1 , state its recorded TGI.
Ans: > 33.1 µM

Q: Given COc1ccc(CCCNC(=O)c2cc(OC)c(OC)cc2CCO)cc1OC , state its recorded TGI.
Ans: > 100 µM

More entries:
Q: Given COc1ccc(/C(Cl)=C(\C=N/O)c2ccc(OC)c(OC)c2)cc1OC , state its recorded TGI.
Ans: > 100 µM

---

# Tested on: UACC-257 melanoma
# procedure-details: NCI tumour cell line growth inhibition, 48 h
Consider the following molecules and their measured TGI readings.

Q: Given O=c1ncc(F)cn1C1OC(CO)C(O)C1O (centres undefined) , state its recorded TGI.
Ans: > 55.3 µM

More entries:
Q: Given O=C(Nc1ccncc1)C(=O)c1cn(S(=O)(=O)c2ccc(Cl)cc2)c2ccccc12 , state its recorded TGI.
Ans: > 100 µM

Q: Given Fc1ccc2c(c1)c(-c1nc(-c3c[nH]c4ncccc34)cs1)cn2CCCCN1CCCCC1 , state its recorded TGI.
Ans: 3.33 µM

Q: Given CC(=O)OCC1OC(n2c(-c3ccccc3)c(C(C)=O)c(-c3cccc4ccccc34)c(C#N)c2=S)C(OC(C)=O)C(OC(C)=O)C1OC(C)=O (centres undefined) , state its recorded TGI.
Ans: > 100 µM

---

# Tested on: HOP-92 NSCLC
# procedure-details: NCI tumour cell line growth inhibition, 48 h
Consider the following compounds and their measured TGI readings.

Q: Given Cc1cc(Cc2cc(C)c(NC(=O)C(=O)C3CCC4=C(SC5C=CC=CC5N4)C3=O)c(C(C)C)c2)cc(C(C)C)c1NC(=O)C(=O)C1CCC2=C(SC3C=CC=CC3N2)C1=O (configuration not stated) , state its recorded TGI.
Ans: > 100 µM

More entries:
Q: Given COC(=O)c1ccc(N=NN(C)COc2ccc(Br)cc2)cc1 , state its recorded TGI.
Ans: > 100 µM

Q: Given CN(C)C(c1ccccc1)C1COC2Cc3ccccc3C1O2 (configuration not stated) , state its recorded TGI.
Ans: > 100 µM

Q: Given CSc1nc(NC2OC(COC(C)=O)C(OC(C)=O)C(OC(C)=O)C2OC(C)=O)c2c(n1)OCC2=O (configuration not stated) , state its recorded TGI.
Ans: > 100 µM

Q: Given C/C=C(\C)C(O)C(C)C(O)C/C=C(C)/C=C(\C)C/C(C)=C/C/C=C(\C)C(O)C(C)c1ccc(CCC)c(=O)o1 (configuration not stated) , state its recorded TGI.
Ans: 44 µM

Q: Given CCOC(=O)C(Cc1ccc(OC(=O)c2ccc(OC)cc2)cc1)NC(=O)C(F)(F)F (configuration not stated) , state its recorded TGI.
Ans: > 100 µM

Q: Given N#CC(Cc1ccccc1)N(CCC1=CCCCC1)Cc1ccccc1 (configuration not stated) , state its recorded TGI.
Ans: > 100 µM

Q: Given CCOC(=O)c1cc2c(cc1Cl)SC(N(c1ccc(OC)cc1)S(=O)(=O)c1ccc(Cl)cc1)=NS2(=O)=O , state its recorded TGI.
Ans: 38.6 µM

Q: Given Cn1cnc([N+](=O)[O-])c1Sc1nc(N)nc2c1ncn2C1CC(O)C(CO)O1 (configuration not stated) , state its recorded TGI.
Ans: > 100 µM

Q: Given CC(=O)c1c(C)[nH]c(-c2nc3ccc(N4CCN(C)CC4)cc3[nH]2)c1-c1ccc(N(C)C)cc1 , state its recorded TGI.
Ans: 2.53 µM

Q: Given O=c1ccn(COC(COCc2ccccc2)COCc2ccccc2)c(=O)[nH]1 , state its recorded TGI.
Ans: > 100 µM

Q: Given COc1cc(C2c3cc4c(cc3OC(NNS(=O)(=O)c3ccc(C)cc3)C2C)OCO4)cc(OC)c1O (configuration not stated) , state its recorded TGI.
Ans: 54.8 µM

---

# Tested on: EKVX NSCLC
# procedure-details: NCI tumour cell line growth inhibition, 48 h; in the data active means GI50 below about 0.43 µM; inactive means the rest
Write down the outcome that applies. Available outcomes: active, inactive

Observe how each entry below is paired with its result.
Q: Status in this test for C[C@@]12CCC[C@@](C)(C(=O)O)C1CC[C@]13C[C@@](O)(CO)[C@](O)(CCC12)C3 (stereo partly drawn) ?
Ans: inactive

Q: Status in this test for CC(=O)c1c(C)[nH]c(-c2nc3ccc(N4CCN(C)CC4)cc3[nH]2)c1-c1ccc(N(C)C)cc1 ?
Ans: inactive

Q: Status in this test for CNC(=O)c1ccccc1Nc1nc(Nc2cc(OC)c(OC)c(OC)c2)ncc1Br ?
Ans: active

Q: Status in this test for O=c1cc(-c2cccc3c2Sc2ccccc2S3)oc(N2CCOCC2)c1 ?
Ans: inactive

Q: Status in this test for NCCCCCCCn1c2c(c3ccccc3c1=O)C(=O)c1ccccc1-2 ?
Ans: inactive

Q: Status in this test for COC(=O)c1cc(O)c2cc3c(cc2c1-c1cc(OC)c(OC)c(OC)c1)OCO3 ?
Ans: inactive

More entries:
Q: Status in this test for O=C(Nc1ccc(-n2ccc3c(NC(=O)c4ccccc4)ncnc32)cc1)Nc1ccc(Cl)c(Cl)c1 ?
Ans: inactive

Q: Status in this test for O=C(c1ccccc1)C(CN1CCCCC1)c1ccccc1 (stereo not drawn) ?
Ans: inactive

Q: Status in this test for Cc1nnc(-c2cccc(-c3ccc(C(=O)NCC4CC4)cc3)c2)o1 ?
Ans: inactive
